Property: Solubility; scope: individual compounds
test: Solubility in PBS; type: physicochemical

compound	Solubility, µM
CC(=O)N1CCC[C@]12CC=CCCCC1(CCCC=CCCCCCC[C@@](C)(C(=O)N[C@@H](Cc3ccccc3)C(=O)N[C@@H](Cc3csc4ccccc34)C(=O)N[C@@H](CO)C(N)=O)NC(=O)[C@H](CC(N)=O)NC(=O)[C@H](Cc3ccccc3)NC(=O)[C@H](C)NC(=O)[C@H](C)NC(=O)[C@H](CCC(=O)O)NC(=O)[C@H](CC(=O)O)NC1=O)NC(=O)[C@H](CC(C)C)NC(=O)[C@H](CC(=O)O)NC2=O (stereo partly drawn) [I-751]	48
CCCC[C@@H]1NC(=O)[C@H](CCC(=O)O)NC(=O)[C@H](CC(=O)O)NC(=O)C2(CCCC=CCCCCCC[C@@](C)(C(=O)N[C@@H](Cc3ccccc3)C(=O)N[C@@H](Cc3csc4ccccc34)C(=O)N[C@@H](CCC(N)=O)C(N)=O)NC(=O)[C@H](CCC(N)=O)NC(=O)[C@H](Cc3ccccc3)NC(=O)[C@H](C)NC1=O)CCCC=CC[C@]1(CCCN1C(C)=O)C(=O)N[C@@H](CC(=O)O)C(=O)N[C@@H]([C@@H](C)CC)C(=O)N2 (stereo partly drawn) [I-657]	40
CC(=O)N1CCC[C@]12CC=CCCCC1(CCCC=CCCCCCC[C@@](C)(C(=O)N[C@@H](Cc3ccccc3Cl)C(=O)N[C@@H](Cc3csc4ccccc34)C(=O)N[C@@H](CCO)C(N)=O)NC(=O)[C@H](CO)NC(=O)[C@H](Cc3ccccc3)NC(=O)[C@H](C)NC(=O)[C@H](C)NC(=O)[C@H](CN(CC(=O)O)CC(F)(F)F)NC(=O)[C@H](CC(=O)O)NC1=O)NC(=O)[C@H](CC(C)(C)C)NC(=O)[C@H](CC(=O)O)NC2=O (single isomer, unassigned) [I-999]	30

====

assay: Solubility in PBS; assay type: physicochemical
Solubility values by entry
quantity name: Solubility (µM)

molecule	unit annotation	numeric readout
CC(=O)N1CCC[C@]12CC=CCCCC1(CCCC=CCCCOC(=O)N3CC[C@@](C(=O)N[C@@H](Cc4ccccc4Cl)C(=O)N[C@@H](Cc4csc5ccccc45)C(=O)N[C@@H](CCC(N)=O)C(N)=O)(C3)NC(=O)[C@H](CC(C)C)NC(=O)[C@H](Cc3ccccc3)NC(=O)[C@H](C)NC(=O)[C@H](C)NC(=O)[C@H](CC(=O)O)NC(=O)[C@H](CC(=O)O)NC1=O)NC(=O)[C@H](Cc1ccc3ccccc3c1)NC(=O)[C@H](CC(=O)O)NC2=O (some centres unmarked) [I-1111]	µM	10
CC(=O)N1CCC[C@]12CC=CCCCC1(CCCC=CCCCOC(=O)N3CC[C@@](C(=O)N[C@@H](Cc4ccsc4)C(=O)N[C@@H](Cc4csc5ccccc45)C(=O)N[C@@H](CO)C(N)=O)(C3)NC(=O)[C@H]([C@@H](C)O)NC(=O)[C@H](Cc3ccccc3)NC(=O)[C@H](C)NC(=O)[C@H](C)NC(=O)[C@H]([C@@H](C)O)NC(=O)[C@H](CC(=O)O)NC1=O)NC(=O)[C@H](CC(C)(C)C)NC(=O)[C@H](CC(=O)O)NC2=O (some centres unmarked) [I-1170]	µM	10
CC(=O)N1CCC[C@]12CC=CCCCC1(CCCC=CCCCCCC[C@@](C)(C(=O)N[C@@H](Cc3ccccc3)C(=O)N[C@@H](Cc3csc4ccccc34)C(=O)N[C@@H](Cc3c[nH]cn3)C(N)=O)NC(=O)[C@H](CCC(N)=O)NC(=O)[C@H](Cc3ccccc3)NC(=O)[C@H](C)NC(=O)[C@H](C)NC(=O)[C@H](CC(=O)O)NC(=O)[C@H](CC(=O)O)NC1=O)NC(=O)[C@H](CC(C)C)NC(=O)[C@H](CC(=O)O)NC2=O (some centres unmarked) [I-561]	µM	14
CC[C@H](C)[C@@H]1NC(=O)[C@H](CC(=O)O)NC(=O)[C@]2(CC=CCCCC3(CCCC=CCCCCCC[C@@](C)(C(=O)N[C@@H](Cc4ccccc4)C(=O)N[C@@H](Cc4csc5ccccc45)C(=O)N4CCC[C@H]4C(N)=O)NC(=O)[C@H](CCC(N)=O)NC(=O)[C@H](Cc4ccccc4)NC(=O)[C@H](C)NC(=O)[C@H](C)NC(=O)[C@H](CCC(=O)O)NC(=O)[C@H](CC(=O)O)NC3=O)NC1=O)CCCN2C(C)=O (some centres unmarked) [I-637]	µM	50
CC(=O)N1CCC[C@]12CC=CCCCC1(CCCC=CCCCOC(=O)N3CC[C@@](C(=O)N[C@@H](Cc4ccccc4Cl)C(=O)N[C@@H](Cc4csc5ccccc45)C(=O)N[C@@H](CO)C(N)=O)(C3)NC(=O)[C@H](CC(C)C)NC(=O)[C@H](Cc3ccccc3)NC(=O)[C@H](C)NC(=O)[C@H](C)NC(=O)[C@H](CC(=O)O)NC(=O)[C@H](CC(=O)O)NC1=O)NC(=O)[C@H](CC1CCCCC1)NC(=O)[C@H](CC(=O)O)NC2=O (some centres unmarked) [I-1112]	µM	10
